inhibition values, listed per item
- experimentalTarget: Protein AF-9 (Homo sapiens)
- test: inhibitors of AF9 AHD–DOT1L interaction, biochemical, AlphaLISA, percent inhibition, MBP-tagged AHD (AID 1794804)
- reportedConditions: MBP-AF9 AHD / biotin-DOT1L peptide binding, at 5 µM, active compounds read high
The source made the active and inactive calls.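 The calls were made as follows: active = inhibition above 55% when tested at 5 µM; inactive = the rest.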

Query: I'd like to know its inhibition. The compound in question is `O=C(NCC1CCNCC1)c1cc2cc(-c3ccc(C(=O)N4CCCCC4)cc3)ccc2s1`
Result: 31% (inactive)

Query: I'd like to know its inhibition. The compound in question is `O=C(NCC1CCNCC1)c1cc2ccc(-c3ccc(N4CCOCC4)cc3)cc2o1`
Result: 40% (inactive)

Query: I'd like to know its inhibition. The compound in question is `O=C(NCC1CCNCC1)c1cc2ccc(-c3ccc(C(=O)N4CCCC4)cc3)cc2o1`
Result: 1% (inactive)

Query: I'd like to know its inhibition. The compound in question is `CC(C)(C)c1ccc(-c2ccc3[nH]c(C(=O)NCC4CCNCC4)cc3c2)cc1`
Result: 13% (inactive)

Query: I'd like to know its inhibition. The compound in question is `N#Cc1ccc(-c2ccc3cc(C(=O)NCC4CCNCC4)sc3c2)cc1F`
Result: 26% (inactive)

Query: I'd like to know its inhibition. The compound in question is `O=C(NCC1CCNCC1)c1cc2cc(-c3ccc(N4CCOCC4)cc3)ccc2[nH]1`
Result: 52% (inactive)

Continuing:
Query: I'd like to know its inhibition. The compound in question is `O=C(NCC1CCNCC1)c1cc2ccc(-c3ccc4c(c3)OCCO4)cc2o1`
Result: 33% (inactive)
